Measured glycan array binding signal (z-score) accompanies every entry in the list below.
Target: Gal(b1-3)Gal(b1-4)GlcNAc
Assay: glycan array binding signal (z-score within array); higher = stronger binding
Settings: glycan notation: IUPAC condensed, linker removed
Shown is part of a subset that was picked to be rich in the strongest signals.
Provide a numeric answer; units are not to be included.

Example entries and their recorded answers appear below.
CCL1 (Coprinopsis cinerea) (protein) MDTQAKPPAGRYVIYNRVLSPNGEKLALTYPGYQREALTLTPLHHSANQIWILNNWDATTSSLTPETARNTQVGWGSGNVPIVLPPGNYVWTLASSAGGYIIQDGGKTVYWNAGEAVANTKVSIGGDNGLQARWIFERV :: -0.151
CFEM-PPl (Pichia pastoris), F2QPV1 (protein) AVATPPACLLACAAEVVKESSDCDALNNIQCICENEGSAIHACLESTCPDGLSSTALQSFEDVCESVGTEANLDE :: 4.73
MGL (Homo sapiens), Q8IUN9 (protein) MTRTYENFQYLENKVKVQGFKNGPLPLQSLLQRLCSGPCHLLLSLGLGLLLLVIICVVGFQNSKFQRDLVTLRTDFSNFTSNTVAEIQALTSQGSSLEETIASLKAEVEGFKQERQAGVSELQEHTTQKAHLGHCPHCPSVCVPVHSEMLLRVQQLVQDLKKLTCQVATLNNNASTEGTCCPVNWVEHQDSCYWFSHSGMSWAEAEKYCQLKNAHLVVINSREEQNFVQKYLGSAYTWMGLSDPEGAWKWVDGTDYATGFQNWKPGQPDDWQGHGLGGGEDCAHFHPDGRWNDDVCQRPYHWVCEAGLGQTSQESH :: -0.245

Query: Can you share its glycan array binding signal (z-score)? I mean this binder: Gal 1 (Mus musculus), P16045 (protein) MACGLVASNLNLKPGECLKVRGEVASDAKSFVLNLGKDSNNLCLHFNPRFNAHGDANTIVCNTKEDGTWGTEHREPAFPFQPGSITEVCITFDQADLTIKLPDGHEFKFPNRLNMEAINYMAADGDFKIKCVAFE
Result: -0.195

Query: Can you share its glycan array binding signal (z-score)? I mean this binder: B936 (Bifidobacterium sp) (protein) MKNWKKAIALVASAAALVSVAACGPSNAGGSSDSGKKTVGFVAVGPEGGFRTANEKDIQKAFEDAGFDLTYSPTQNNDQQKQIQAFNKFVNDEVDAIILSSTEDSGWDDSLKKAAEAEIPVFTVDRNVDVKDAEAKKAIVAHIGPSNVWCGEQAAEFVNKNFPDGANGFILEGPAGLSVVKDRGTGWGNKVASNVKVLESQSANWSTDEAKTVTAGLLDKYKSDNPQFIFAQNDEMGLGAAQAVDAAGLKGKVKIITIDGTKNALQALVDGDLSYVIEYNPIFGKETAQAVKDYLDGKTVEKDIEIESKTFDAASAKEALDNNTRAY
Result: 11.1

Query: Can you share its glycan array binding signal (z-score)? I mean this binder: rMpL (Macrolepiota procera) (protein) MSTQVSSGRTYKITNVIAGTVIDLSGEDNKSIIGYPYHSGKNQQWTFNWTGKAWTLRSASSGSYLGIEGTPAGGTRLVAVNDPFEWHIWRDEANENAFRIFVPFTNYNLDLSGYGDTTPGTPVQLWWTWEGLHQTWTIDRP
Result: -0.257
